Target: T1, CRBN, Q96SW2;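 also: pooled lentiviral library of zinc finger degron-EGFP fusions in mCherry-positive Jurkat cells, FACS-sorted after compound exposure, with degron abundance counted by next-generation sequencing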
T1 chain: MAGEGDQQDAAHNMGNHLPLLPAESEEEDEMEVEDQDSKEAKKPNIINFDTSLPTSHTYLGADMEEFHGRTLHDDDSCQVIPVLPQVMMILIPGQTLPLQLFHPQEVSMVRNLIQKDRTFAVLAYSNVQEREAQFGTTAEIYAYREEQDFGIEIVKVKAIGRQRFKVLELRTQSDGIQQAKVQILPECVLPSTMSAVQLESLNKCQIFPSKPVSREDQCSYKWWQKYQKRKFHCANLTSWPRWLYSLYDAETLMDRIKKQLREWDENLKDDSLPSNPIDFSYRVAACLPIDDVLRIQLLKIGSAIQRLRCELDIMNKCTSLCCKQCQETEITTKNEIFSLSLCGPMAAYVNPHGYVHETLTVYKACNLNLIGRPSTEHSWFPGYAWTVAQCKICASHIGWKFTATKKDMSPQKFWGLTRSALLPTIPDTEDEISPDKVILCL
Assay: log2 fold change of degron read counts, EGFP-low vs EGFP+ sorted cells (limma voom), compound-induced degradation; higher = more compound-induced degradation of the degron-EGFP fusion; degrons are variants of IKZF1/3 zinc finger 2; compound dose not given here
Conditions: Jurkat; 18 h; compound: thalidomide
Whole data set: some 8,300 sequences, median “log2 fold change of degron read counts, EGFP-low vs EGFP+ sorted cells (limma voom), compound-induced degradation” near -1.1, cut for the highest 2% near 3.2. This excerpt belongs to a sample that is enriched for the highest values.
QUANTITY NAME: log2 fold change of degron read counts
Give the value as a plain number.

Recorded log2 fold change of degron read counts, per entry:
FVCDVCGARFTQKGNLLRHIKL [46F_47V_49D_50V_52G_53A_54R_55F_67L_, Q9UKT9]    0.963
FGCDVCGARFTQKGNLLRHIKL [46F_47G_49D_50V_52G_53A_54R_55F_67L_, Q9UKT9]    -0.568
FYCDVCGARFTQKGNLLRHIKL [46F_47Y_49D_50V_52G_53A_54R_55F_67L_, Q9UKT9]    -0.569
FTCPICGARFTQKGNLLRHIKL [46F_47T_49P_50I_52G_53A_54R_55F_67L_, Q9UKT9]    3
FFCNQCGAKFTQKGNLLRHIKL [46F_47F_49N_50Q_52G_53A_54K_55F_67L_, Q9UKT9]    -1.91
FWCDVCGARFTQKGNLLRHIKL [46F_47W_49D_50V_52G_53A_54R_55F_67L_, Q9UKT9]    0.033

Q) Could you tell me which log2 fold change of degron read counts is on file for FDCPICGRMFTQKGNLLRHIKL [46F_47D_49P_50I_52G_53R_54M_55F_67L_, Q9UKT9] ?
A) 1.7

Q) # query: log2 fold change of degron read counts of entry FVCEVCGAVFTQKGNLLRHIKL [46F_47V_49E_50V_52G_53A_54V_55F_67L_, Q9UKT9]
A) 2.01

Q) # query: log2 fold change of degron read counts of entry FHCPICGARFTQKGNLLRHIKL [46F_47H_49P_50I_52G_53A_54R_55F_67L_, Q9UKT9]
A) 0.851

Q) Fill blank: measured log2 fold change of degron read counts of the sequence FKCEICGHCFTQKGNLLRHIKL [46F_47K_49E_50I_52G_53H_54C_55F_67L_, Q9UKT9] is ____.
A) -2.98

Q) Given the sequence FQCEVCGAVFTQKGNLLRHIKL [46F_47Q_49E_50V_52G_53A_54V_55F_67L_, Q9UKT9] , what is its reported log2 fold change of degron read counts?
A) 3.71
